Values from patent US20040180888A1

Parameter Measured: melting point

Use these answered entries as a reference point.
Q: Fill blank: measured melting point of the compound Cc1cc(C)cc(S(=O)(=O)c2c(CC(N)=O)[nH]c3ccc([N+](=O)[O-])cc23)c1 is ____.
A: 270 to 272 °C

Q: Continue with Cc1cc(C)cc(S(=O)(=O)c2c(CC(N)=O)[nH]c3cc(Cl)c(F)cc23)c1
A: 262 to 264 °C

Q: Continue with Cc1cc(C)cc(S(=O)(=O)c2c(CC(N)=O)[nH]c3ccc(Cl)c(F)c23)c1
A: 268 to 270 °C

Q: Continue with Cc1cc(C)cc(S(=O)(=O)c2c(CC(N)=O)[nH]c3ccc(F)c(F)c23)c1
A: 298 to 300 °C

Q: Continue with Cc1cc(C)cc(S(=O)(=O)c2c(CC(N)=O)[nH]c3c(Cl)cc(Cl)cc23)c1
A: > 300 °C

Further cases:
Q: Fill blank: measured melting point of the compound Cc1cc(C)cc(S(=O)(=O)c2c(CC(N)=O)[nH]c3c(F)cc(F)cc23)c1 is ____.
A: > 300 °C

Q: Continue with Cc1cc(C)cc(S(=O)(=O)c2c(CC(N)=O)[nH]c3ccc(F)c(Cl)c23)c1
A: 279 to 280 °C

Q: Continue with NC(=O)Cc1[nH]c2ccc(-n3cccc3)cc2c1S(=O)(=O)c1ccccc1 [25a]
A: 250 °C

Q: Continue with CC(=O)c1ccc2[nH]c(CC(N)=O)c(Sc3cc(C)cc(C)c3)c2c1
A: > 300 °C

---

tested on: HIV-1 Y181C; assay: microbe, parasite or virus in culture; type: cell-based; conditions: 50% protection of MT-4 cells, MTT; read-out: Y181C EC50
Listed compounds paired with reported EC50
Write the value in nM as a bare number.

Use these answered entries as a reference point.
Q: Fill blank: measured EC50 of the compound Cc1cc(C)cc(S(=O)(=O)c2c(C(N)=O)[nH]c3cc(F)c(F)cc23)c1 [compound 12] is ____.
A: 70

Q: Continue with Cc1cc(C)cc(S(=O)(=O)c2c(C(=O)NCC(N)=O)[nH]c3ccc(Cl)cc23)c1 [compound 4]
A: 30

Now for a further compound.
Q: Fill blank: measured EC50 of the compound NC(=O)c1[nH]c2cc(Cl)c(Cl)cc2c1S(=O)(=O)c1ccccc1 [compound 8] is ____.
A: 2600

---

test system: mock-infected MT-4 cells; assay: Viability of mock-infected MT-4 cells, MTT method; assay type: cell-based
Parameter Measured: CC50 (µM)
Write the value in µM as a bare number.

Q: Fill blank: measured CC50 of the compound Cc1cc(C)cc(S(=O)(=O)c2c(C(=O)NNC(C)C)[nH]c3ccc(Cl)cc23)c1 [Compd 11] is ____.
A: 17

Further cases:
Q: Fill blank: measured CC50 of the compound NC(=O)c1[nH]c2cc(Cl)c(Cl)cc2c1S(=O)(=O)c1ccccc1 [compound 8] is ____.
A: 123

Q: Continue with Cc1cc(C)cc(S(=O)(=O)c2c(C(=O)NCC(N)=O)[nH]c3ccc(Cl)cc23)c1 [compound 4]
A: 30

---

Listed molecules paired with reported CC50
experiment: Viability of mock-infected MT-4 cells, MTT method; format: cell-based; settings: human; mock-infected MT-4 cells, MTT
Write the value in µM as a bare number.

Q: Fill blank: measured CC50 of the molecule Cc1ccnc2c1NC(=O)c1cccnc1N2C1CC1 [NVP, nevirapine, reference compound] is ____.
A: 200

Now for a further molecule.
Q: Fill blank: measured CC50 of the molecule O=C1Nc2ccc(Cl)cc2[C@@](C#CC2CC2)(C(F)(F)F)O1 [EFV, efavirenz, reference compound] is ____.
A: 35
